# assay-details: folding stability dG unfold from trypsin proteolysis; higher = more stable
Cut-off 1 kcal/mol on folding stability dG unfold, inclusive. At or above means Y; below means N.

> print(dat)
                                       chain  cat
 1  SAGGSAGGSAGGLADLLKGKTFTVTFPEGDKPYPATFEPTADDTVRVGFPDGDSYPVPAAYQSAGGSAGGSA [r18_169_TrMRF]    N
 2  SAGGSAFRVQTWDDGKPRKIPIGESLDDLKDQIDDNPNYPIYIEFPNGKPFHMPWSDIKNMIDQLKSAGGSA [r15_36_TrROS]    N
 3  SMTFVLPYPKEGKTITVTYPDLESAVSSSGVATFQDPALLAQVIAALPSSVIVKEIKKNPDGTYTLTVAASA [r9_997_JUSTAS]    N
 4  SAGGSAMSLSDIKDVDVYRNPNGWYTAKLKIKDPNNGKDKEVNIHVPPGQTPEKAKNIAREILKELSAGGSA [r15_181_TrROS]    N
 5  SAGKIEKIVITKKKDGYVIKVYYKDNKKVKTYKAGKTLEEIKKKLEEEGFEIVKVEVKKVKPGEKVEISAGG [r19_386_TrROS_Hall]    Y
 6  SAGGSAGGSAGGPITSIDTSGPVITVTATTPGGSVTMDVPPDLTLEEVEALLKANPELLNSAGGSAGGSAGG [r7_373_JUSTAS]    Y
 7  SMKRVLILVPDPSVDKEELIEELKKKGFEDIEVVDSEEELKKLPENIDVVVIVRDGEVEVREVPPVEALKSA [r9_750_JUSTAS]    N
 8  SAMITVEIVDPLPDIANLSEEEAKALAEELAEEYAKKKFPNENVKITKVEVELEPETPEIRVTVTLELKSAG [r14_310_JUSTAS]    Y
 9  SAGGMVTVSTPLGLGYSEEIKARMEEYVKAGDPEAAKELAQEYIDAKYPPKWPVEISFHENPAISKKSAGGS [r8_48_JUSTAS]    N
10  SAGGSAGGVPEVVEEVAREVDPRIVTRVEVRVFEPPPEYRLVVVVVELRLPTERRFVPRVVRLRSAGGSAGG [r6_630_TrMRF]    Y
11  SAGGSAGGSDKVVEFTFKIPSKDITAEDIAKAVKEAFPGVKKIEVTLYPGEGTAKVKVYLEPSSAGGSAGGS [r20_31_TrMRF]    Y
12  SAGGSAGGSGSMEFTIDDEDLRIEIKFLPGGKVEITIWDPTNNVPLKTIETEPEEIEEVIEKLSAGGSAGGS [r20_129_JUSTAS]    Y
13  SAGRIEVYQDPNMLRVIEIPLPNGREIVIYRPPGYYHIEIENPNNNKQIPIMIPMEPGDIKKIIKEFINSAG [r5_820_TrROS]    Y
14  SAGGSMIELTLTSTVPDGTPASTVPPEVAREQALAYAEAQGLTVVEIRVEFDPEAGTITIPVVTALSAGGSA [r2_237_JUSTAS]    Y

###

# assay-details: folding stability dG unfold from trypsin proteolysis; higher = more stable
measurement-name: folding stability dG unfold (kcal/mol)

> print(dat)
                                      chain  display.unit  numeric.result
1  SAGGSAGGSAGLVKLKDKNGKLITLEVKEVEVVEVKEVTLKPKPKPKKTLKLSEEELKKLSAGGSAGGSAGG [r17_484_TrROS_Hall]      kcal/mol          -0.143
2  MMYLIRVTVYDEETEEEVEEIEILIELSEEELKNMSEEEREKLLEEALKKAEELAKEYPNLKIEVEIVELPS [r1_115_TrROS_Hall]      kcal/mol            3.52
3  SAGMIEITLYPPKAVVDVTVTIGGESESRTIPVDGKSKEEVIEEAREEVKAEYPDKAITTKVTEVPGDGSAG [r5_180_JUSTAS]      kcal/mol          -0.437
4  SAGDPEVVAEAEFPFTFPLAKIEVRISVYPDGTARIEVTITFPAPGKGNPKKPIKLRFRFEIKLAPDALSAG [r5_224_TrMRF]      kcal/mol             3.8
5  SAGGSAGGSAGMYVYKITYPTPSGGASEKLYPSSVPLEEVLKEAEERGAVEIEILPESELSAGGSAGGSAGG [r11_490_JUSTAS]      kcal/mol           0.103
6  SAGGSAGGSKTPVFYIPPSLKDPEKAIELLEEIRKKIPPGTKIAVIAPGGGIPELKKAGLITASAGGSAGGS [r12_992_TrMRF]      kcal/mol           0.344
7  SAGGEPPPVRVSFSVEEVTVGAGPVFVRRVVTYDPAEGRVSEFVEVFERGRGGLLGRSSRTVPAEELASAGG [r13_772_TrMRF]      kcal/mol            4.08

###

# assay-details: folding stability dG unfold from trypsin proteolysis; higher = more stable
measurement-name: folding stability dG unfold (kcal/mol)

> print(dat)
                                      chain             measurement.name  numeric.result
1  SAGGSAGGSKKIKIKVKVKNPKTKKYYEIEIEISEEELKEGKLTKEQIKKELEKLGYEVEIVPSAGGSAGGS [r20_221_TrROS_Hall]  folding stability dG unfold            3.26
2  SAGGSAGGSAPLRFEFELPGNYRVRIELEPVPDDPSAGPRYRLRIEVFDLETGEVLPFEIDGSAGGSAGGSA [r18_66_TrMRF]  folding stability dG unfold            2.75
3  SAGGSAGGSASVTVVPSPGPTTTVVTFSPDDTVTVTTHTVDPSAATSTPTTTTVSLSDPAAASAGGSAGGSA [r18_503_JUSTAS]  folding stability dG unfold            2.08
4  SAGGSAGGAEVVKVDPKPAGVTTVLERYPDGTLRLLKETEENGKLTVSEVETIPVPDISKPPLLSAGGSAGG [r6_836_JUSTAS]  folding stability dG unfold          -0.198
5  SAGGSAGGSAGDEKYTLTVTIPVPKNAPVLVGAEKGYEVIDLNPDAPVEEGYITVKVEFGSAGGSAGGSAGG [r11_701_TrMRF]  folding stability dG unfold          -0.376
6  SAGGSAGGSAMLIVGGADPEGAAEAAEEFIAAIEKAAEELGIPPEHIEIPVLIAEPGEAPGSAGGSAGGSAG [r3_249_TrMRF]  folding stability dG unfold            1.19
7  SAGGSAGGSAGGGMKVKIETTKLPNGIWRVKVYDENGNFIGEKEFTSEEELEEFKKKVASSAGGSAGGSAGG [r7_476_JUSTAS]  folding stability dG unfold            2.98

###

# assay-details: folding stability dG unfold from trypsin proteolysis; higher = more stable
measurement-name: folding stability dG unfold

> print(dat)
                                      chain             measurement.name           result
1  LKITLPGGAEVTEIDDIKVSSDGYIELNVRVRNPDNDVEVPVPVYIPVPPVPPVPVKVSFIPGTGKLVVDDS [r1_411_TrMRF]  folding stability dG unfold  0.0956 kcal/mol
2  SAGGTVKVTVEVRDEETGETVTVEVEVEPAPAPPVVVLPAEDLEKLRELGFPENAVLDEETNELVIFSAGGS [r16_194_TrROS_Hall]  folding stability dG unfold   0.537 kcal/mol
3  SAGGEMVTIRVRAPDPEKLIEALREEFPEGLTIRPFPRPTPDGYEVLIVVPAERPEELLEAVERAIGSAGGS [r16_43_TrMRF]  folding stability dG unfold    2.01 kcal/mol
4  SAGGSAGGSKELLKNLPPGAKITVEKKEDGTVRITITNKDGSEKEIEIKVNGKIIKLTIKKKPSAGGSAGGS [r20_50_TrROS_Hall]  folding stability dG unfold    2.04 kcal/mol
5  SAGGMTITVPVDEEEAEEFIREATGELTALAEKYPDVPIEIEFPLKSGRVIRLRVYPKSKKVEIEVYDSAGG [r13_216_TrMRF]  folding stability dG unfold    2.48 kcal/mol
6  SAGGSAGGKAEKITLEIPNTGKKVEIIKPENKAIITVYDKNGKPIKTIVVPPNFPGIEDAVKADSAGGSAGG [r6_424_TrMRF]  folding stability dG unfold  -0.267 kcal/mol
7  SAGGSAGGANDPEMPKPKRVEITIPPDEEIRNPNGKEMPVEQAREYAEYLADRYGIDVEITISPSAGGSAGG [r6_162_TrROS]  folding stability dG unfold  -0.406 kcal/mol

###

# assay-details: folding stability dG unfold from trypsin proteolysis; higher = more stable
Classify by measured folding stability dG unfold: Satisfied if it is equal to or exceeds 1 kcal/mol, Not satisfied if it is smaller.

> print(dat)
                                       chain            cat
 1  SAGGSAGGSAMVRIEFENGLVAEFPSDLPLEEVKEKAVELAKLLSNDKKPVKVKILDIKEEGSAGGSAGGSA [r18_213_TrMRF]  Not satisfied
 2  SAGGSIEELAREKALEEHKKTGEKNYPFTFEFEIVSSYEFAPDGTPVASSEFPFKITLKFKLPPKKKSAGGS [r16_156_JUSTAS]      Satisfied
 3  SMREIPPEDLKKAANAYLNGDKEKVEQLFKDAGFKKVVLEEVEGDGEVLFVALVEHPDGPTVLTVSSSDFSA [r9_783_TrMRF]  Not satisfied
 4  SAGGSAGGSMKKLKITFPPGMTEEELKKKIEELAKKLNLEVVKIKSIEYDKENKEVTITVEIKSAGGSAGGS [r12_131_TrROS_Hall]      Satisfied
 5  MRVVFEATYTDPEGVPVTETFVIPEEVLEEIEREGRPITREELVELAEEIIRDYTKEHDADVEFRFVEFEPS [r1_174_TrMRF]      Satisfied
 6  SAGLDEEAYRNGLTVYLTSRLPGPDVLRPQWFDVTPEGDGFTYNVALPDGVPVNLEVLSRKVLSPEELLSAG [r14_427_JUSTAS]  Not satisfied
 7  SAGGSDRVLVPAGPSDYDVLVVVTPGPGDLVGVDALVIHPDGTPLAVRGVLDPTTGGISPVAVDPLSAGGSA [r2_402_TrMRF]  Not satisfied
 8  SAGGSAGGSWEWITAEEALKRAREENPPGKPIEFHFEDPWYFTVRFDGEDPNDVTIEWVPLEKSAGGSAGGS [r12_648_TrROS]      Satisfied
 9  SAGGSAGGSAGKIVIVVDEDGNYTLKVNGKTYVFKTPEEAKAAAEELKKAGIEIEIVEVPSAGGSAGGSAGG [r17_35_TrROS_Hall]      Satisfied
10  SAGGSAGGSKIKILFDPNMTLEEAIELAEKLTKEFDAEVELEIIPKPKPKPLPVIDPENPKLLSAGGSAGGS [r12_159_TrMRF]  Not satisfied
11  SAGGSAGGMEVPPDQRVLVLDVEGTPEAIEAFAEELVRRGFDKPVAVVAVDPETGKVTIVVPEDSAGGSAGG [r6_652_TrMRF]  Not satisfied
12  SAGGNPRPIELYFPEGKIEKIQEKLREEDGYDVDIQMEQNPDGWFKINITFQDPQRVMDILEKFGITSAGGS [r16_172_TrROS]      Satisfied
13  SAGGSAGGSAGGMLSTNVTRTITLTYFDPNGSKPIETQTVTVTTFVEIFQEPVGNWTAASAGGSAGGSAGGS [r10_50_JUSTAS]  Not satisfied
14  SAGGSAGGSAGKPKKPKLVKVKITLPNGEKKEIITEDVEEVIKEINEEFGAIKIEVEEIKSAGGSAGGSAGG [r17_508_TrMRF]      Satisfied
15  SAGGSMIEEAIEEALKKGLEKVEIEVEVEVNGKIYRVKMEIVKVEEGKVEIKIEVEEIDPETGKLISAGGSA [r2_420_TrROS_Hall]      Satisfied
16  SAMTVTSSVTTQPVPDSSDTVTYTNITVTIGNQTVTYTETVTYSSTDPTLRTVTTLLPDGTTVTTTVPVGSA [r9_897_JUSTAS]      Satisfied
17  SAGGSAGGSAGGGKKKVTVEFVIKVPKNSKPVFFTIKGGIKVEFYPIPDTNYALVKVTFGSAGGSAGGSAGG [r7_796_TrMRF]      Satisfied
18  SAGGSAGGSMPKKTYEFEIEYEDPEEAVEKAIREFEEETGEKIEEVEVEYDPEKGIVKITLVKSAGGSAGGS [r12_265_JUSTAS]  Not satisfied
19  SAGGSAGGSAGMEIEVEVDPSTNTVKLTKKIGGKWVEATVTRTPGTGTITLPDGSTLKLTSAGGSAGGSAGG [r11_395_JUSTAS]  Not satisfied
20  SAGVEYEVKVEYDPETGTVTAPVTFPDGPEAIVEIEFEEPGRYKMIIRIEEEEKEFEVDPDAIDEITIESAG [r5_14_TrMRF]  Not satisfied
21  SAGGETVTLTLKVETLEELEALAKKLAEETGEEVTIEVIGPDGKKYTFKTPEELKNIPGATVKITIKKSAGG [r13_620_TrROS_Hall]      Satisfied
22  SAGGSAGGPSYTIQFPYPPGMPPWRLQKLLEEAGYPPPEIEYNPKNGSHWITFSPEVRDAFKELSAGGSAGG [r6_307_TrROS]  Not satisfied
23  SAGGSAGGSAGGPSDVTLLEEEVEELPNGTIKTRYTFKLPNGELAEAESTTPLEGPFHHSAGGSAGGSAGGS [r10_532_JUSTAS]  Not satisfied
24  SAGGAEIKITSIEYNPETKTITAKVEITVDGKKFTFTITIKLKAAPAPPTVTVTDKDIPGKTVTLTKTSAGG [r13_615_TrROS_Hall]      Satisfied
25  ITITYDKETGELTVTLSVEIEREDGYLVRVSVTIRINPNGEIKIEKKIEVIKLPPAEVKLTDEELEKLKKES [r1_4_TrROS_Hall]      Satisfied
26  SAGGSAGGSAGGSKKTAVLKVGDKWIPLEIDEDKVTLIYPDGKKEEISLEDIPENTISDASAGGSAGGSAGG [r7_748_TrMRF]  Not satisfied
